test system: 362531-283-R-J2-PDC complex spheroid viability; assay: Anticancer human tumor 362531-283-R-J2-PDC patient-derived colon adenocarcinoma cell line growth inhibition [RAS]; conditions: curve of first compound; second compound 0.003 µM
ATTRIBUTE MEASURED: IC50 (nM)
Write it as a number; the unit nM goes unstated.

Req: Requested read-out: IC50. Entry: CC(Nc1ccc2c(c1)OCCn1cc(N3C(=O)OCC3C(F)F)nc1-2)C(N)=O (configuration not stated) + CCn1c(-c2cc(N3CCN(C)CC3)cnc2C(C)OC)c2c3cc(ccc31)-c1csc(n1)CC(NC(=O)C1CC1C)C(=O)N1CCCC(N1)C(=O)OCC(C)(C)C2
Resp: 1610

====

tested on: 362531-283-R-J2-PDC complex spheroid viability; assay: Anticancer human tumor 362531-283-R-J2-PDC cell line growth inhibition [RAS]; details: second compound 10 µM; first compound 0.316 µM; active = viability on the fitted dose curve at most 10% of control; inactive = the rest;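 further: spheroids exposed to the agents for 7 days before readout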
Choose the fitting class; nothing outside active, inactive is accepted.

Reference set (4 entries):
{"columns": ["MOLECULE", "ASSIGNED LABEL"],
 "data": [
  ["O=C(c1ccc(F)c(F)c1Nc1ccc(I)cc1F)N1CC(O)([C@@H]2CCCCN2)C1 + C#Cc1c(F)ccc2cc(O)cc(-c3ncc4c(N5CC6CCC(C5)N6)nc(OCC56CCCN5CC(F)C6)nc4c3F)c12", "active"],
  ["C[C@@H](NC(=O)c1ncnc(N)c1Cl)c1ncc(C(=O)Nc2cc(C(F)(F)F)c(Cl)cn2)s1 + C#Cc1c(F)ccc2cc(O)cc(-c3ncc4c(N5CC6CCC(C5)N6)nc(OCC56CCCN5CC(F)C6)nc4c3F)c12", "inactive"],
  ["CCN1CCN(Cc2ccc(Nc3ncc(F)c(-c4cc(F)c5nc(C)n(C(C)C)c5c4)n3)nc2)CC1 + C#Cc1c(F)ccc2cc(O)cc(-c3ncc4c(N5CC6CCC(C5)N6)nc(OCC56CCCN5CC(F)C6)nc4c3F)c12", "inactive"],
  ["CC(C)NCC(C(=O)N1CCN(c2ncnc3c2C(C)CC3O)CC1)c1ccc(Cl)cc1 (stereo not given) + C#Cc1c(F)ccc2cc(O)cc(-c3ncc4c(N5CC6CCC(C5)N6)nc(OCC56CCCN5CC(F)C6)nc4c3F)c12", "inactive"]
]}

Consider the additional molecule presented here.
Req: Query: recorded result category for CC(Nc1ccc2c(c1)OCCn1cc(N3C(=O)OCC3C(F)F)nc1-2)C(N)=O (stereo not given) + C#Cc1c(F)ccc2cc(O)cc(-c3ncc4c(N5CC6CCC(C5)N6)nc(OCC56CCCN5CC(F)C6)nc4c3F)c12 in this test
Resp: active

====

# viability, T/C per entry
system: 362531-283-R-J2-PDC complex spheroid viability; experiment: Anticancer human tumor 362531-283-R-J2-PDC cell line growth inhibition [RAS]; settings: second compound 0.0949 µM; first compound 10 µM; stronger effect = lower value;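 further: spheroids exposed to the agents for 7 days before readout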;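 on viability, T/C: luminescence viability as percent of DMSO vehicle control wells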

Examples with answers:
{"columns": ["COMPOUND", "viability, T/C"],
 "data": [
  ["CC1(O)CCCC1n1c(=O)c(C(F)F)cc2cnc(NC3CCN(S(C)(=O)=O)CC3)nc21 (centres undefined) + CCn1c(-c2cc(N3CCN(C)CC3)cnc2C(C)OC)c2c3cc(ccc31)-c1csc(n1)CC(NC(=O)C1CC1C)C(=O)N1CCCC(N1)C(=O)OCC(C)(C)C2", "61%"],
  ["NC1c2ccccc2OC12CCN(c1cnc3c(N4CCCc5ncccc54)n[nH]c3n1)CC2 (centres undefined) + CCn1c(-c2cc(N3CCN(C)CC3)cnc2C(C)OC)c2c3cc(ccc31)-c1csc(n1)CC(NC(=O)C1CC1C)C(=O)N1CCCC(N1)C(=O)OCC(C)(C)C2", "2.33%"],
  ["CC(=O)OC12COC1CC(O)C1(C)C(=O)C(O)C3=C(C)C(OC(=O)C(O)C(NC(=O)OC(C)(C)C)c4ccccc4)CC(O)(C(OC(=O)c4ccccc4)C21)C3(C)C (centres undefined) + CCn1c(-c2cc(N3CCN(C)CC3)cnc2C(C)OC)c2c3cc(ccc31)-c1csc(n1)CC(NC(=O)C1CC1C)C(=O)N1CCCC(N1)C(=O)OCC(C)(C)C2", "7.69%"]
]}

In the following, a different compound is considered.
Req: Item C[C@@H](NC(=O)c1ncnc(N)c1Cl)c1ncc(C(=O)Nc2cc(C(F)(F)F)c(Cl)cn2)s1 + CCn1c(-c2cc(N3CCN(C)CC3)cnc2C(C)OC)c2c3cc(ccc31)-c1csc(n1)CC(NC(=O)C1CC1C)C(=O)N1CCCC(N1)C(=O)OCC(C)(C)C2 with 362531-283-R-J2-PDC complex spheroid viability - viability, T/C?
Resp: 62.5%

====

tested on: 362531-283-R-J2-PDC complex spheroid viability; experiment: Anticancer human tumor 362531-283-R-J2-PDC cell line growth inhibition [RAS]; settings: second compound 10 µM; first compound 0.1 µM; stronger effect = lower value;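 further: spheroids exposed to the agents for 7 days before readout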;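 on viability, T/C: luminescence viability as percent of DMSO vehicle control wells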
viability, T/C strictly less than 20% = Yes. Otherwise No.

{"columns": ["MOLECULE", "ASSIGNED LABEL"],
 "data": [
  ["Cc1nc(N2CCC3(CC2)COC(C)C3N)c(CO)nc1Sc1ccnc(N)c1Cl (centres undefined) + C#Cc1c(F)ccc2cc(O)cc(-c3ncc4c(N5CC6CCC(C5)N6)nc(OCC56CCCN5CC(F)C6)nc4c3F)c12", "No"],
  ["Nc1ccn(C2OC(CO)C(O)C2(F)F)c(=O)n1 (centres undefined) + C#Cc1c(F)ccc2cc(O)cc(-c3ncc4c(N5CC6CCC(C5)N6)nc(OCC56CCCN5CC(F)C6)nc4c3F)c12", "Yes"],
  ["C=CC(=O)Nc1cc(Nc2nccc(-c3cn(C)c4ccccc34)n2)c(OC)cc1N(C)CCN(C)C + C#Cc1c(F)ccc2cc(O)cc(-c3ncc4c(N5CC6CCC(C5)N6)nc(OCC56CCCN5CC(F)C6)nc4c3F)c12", "No"],
  ["CC(C)NCC(C(=O)N1CCN(c2ncnc3c2C(C)CC3O)CC1)c1ccc(Cl)cc1 (centres undefined) + C#Cc1c(F)ccc2cc(O)cc(-c3ncc4c(N5CC6CCC(C5)N6)nc(OCC56CCCN5CC(F)C6)nc4c3F)c12", "No"],
  ["CC1(O)CCCC1n1c(=O)c(C(F)F)cc2cnc(NC3CCN(S(C)(=O)=O)CC3)nc21 (centres undefined) + C#Cc1c(F)ccc2cc(O)cc(-c3ncc4c(N5CC6CCC(C5)N6)nc(OCC56CCCN5CC(F)C6)nc4c3F)c12", "No"],
  ["CC(=O)OC12COC1CC(O)C1(C)C(=O)C(O)C3=C(C)C(OC(=O)C(O)C(NC(=O)OC(C)(C)C)c4ccccc4)CC(O)(C(OC(=O)c4ccccc4)C21)C3(C)C (centres undefined) + C#Cc1c(F)ccc2cc(O)cc(-c3ncc4c(N5CC6CCC(C5)N6)nc(OCC56CCCN5CC(F)C6)nc4c3F)c12", "Yes"]
]}

Req: Threshold test, viability, T/C < 20%: CCN1CCN(Cc2ccc(Nc3ncc(F)c(-c4cc(F)c5nc(C)n(C(C)C)c5c4)n3)nc2)CC1 + C#Cc1c(F)ccc2cc(O)cc(-c3ncc4c(N5CC6CCC(C5)N6)nc(OCC56CCCN5CC(F)C6)nc4c3F)c12
Resp: No

Req: Is viability, T/C of O=C(c1ccc(F)c(F)c1Nc1ccc(I)cc1F)N1CC(O)([C@@H]2CCCCN2)C1 + C#Cc1c(F)ccc2cc(O)cc(-c3ncc4c(N5CC6CCC(C5)N6)nc(OCC56CCCN5CC(F)C6)nc4c3F)c12 strictly below 20%?
Resp: Yes

Req: Hello, is viability, T/C of the following molecule strictly smaller than 20%? CC(Nc1ccc2c(c1)OCCn1cc(N3C(=O)OCC3C(F)F)nc1-2)C(N)=O (centres undefined) + C#Cc1c(F)ccc2cc(O)cc(-c3ncc4c(N5CC6CCC(C5)N6)nc(OCC56CCCN5CC(F)C6)nc4c3F)c12
Resp: No

====

List of viability, T/C values.
tested on: 362531-283-R-J2-PDC complex spheroid viability; assay: Anticancer human tumor 362531-283-R-J2-PDC cell line growth inhibition [RAS]; conditions: second compound 0.00949 µM; first compound 0.00949 µM; stronger effect = lower value;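 further: spheroids exposed to the agents for 7 days before readout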;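 on viability, T/C: luminescence viability as percent of DMSO vehicle control wells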
Your answer is read as %, so omit the unit and give the number.

Please review the entries below; each comes with its answer.
{"columns": ["COMPOUND", "SYSTEM NAME", "viability, T/C (%)"],
 "data": [
  ["CC1(C)CCC(Nc2ncc(C(F)(F)F)c(-c3c[nH]c4c(P(C)(C)=O)c(C#N)ccc34)n2)CN1 (centres undefined) + CCn1c(-c2cc(N3CCN(C)CC3)cnc2C(C)OC)c2c3cc(ccc31)-c1csc(n1)CC(NC(=O)C1CC1C)C(=O)N1CCCC(N1)C(=O)OCC(C)(C)C2", "362531-283-R-J2-PDC complex spheroid viability", 101],
  ["CCc1c2c(nc3ccc(O)cc13)-c1cc3c(c(=O)n1C2)COC(=O)[C@]3(O)CC + CCn1c(-c2cc(N3CCN(C)CC3)cnc2C(C)OC)c2c3cc(ccc31)-c1csc(n1)CC(NC(=O)C1CC1C)C(=O)N1CCCC(N1)C(=O)OCC(C)(C)C2", "362531-283-R-J2-PDC complex spheroid viability", 74.4],
  ["CC1(C)CCC(Nc2ncc(C(F)(F)F)c(-c3c[nH]c4c(P(C)(C)=O)c(C#N)ccc34)n2)CN1 (centres undefined) + CCn1c(-c2cccnc2C(C)OC)c2c3cc(ccc31)N1CCOC(CC(NC(=O)C(C(C)C)N(C)C(=O)C3(F)CCN(C(=O)C#CC(C)(C)N(C)C)CC3)C(=O)N3CCCC(N3)C(=O)OCC(C)(C)C2)C1", "362531-283-R-J2-PDC complex spheroid viability", 87.3]
]}

Then there is this compound:
Req: Give 362531-283-R-J2-PDC complex spheroid viability viability, T/C for CCc1c2c(nc3ccc(O)cc13)-c1cc3c(c(=O)n1C2)COC(=O)[C@]3(O)CC + CCn1c(-c2cccnc2C(C)OC)c2c3cc(ccc31)N1CCOC(CC(NC(=O)C(C(C)C)N(C)C(=O)C3(F)CCN(C(=O)C#CC(C)(C)N(C)C)CC3)C(=O)N3CCCC(N3)C(=O)OCC(C)(C)C2)C1
Resp: 76.1

Hey, just so you know, these numbers are from PubChem BioAssay AID2060909.
